Experiment: Solubility of compound
Assay type: physicochemical
Observed Property: solubility (mg/mL)
Your answer should be a plain number; it is taken to be in mg/mL.

Item: CCc1cnc(N2CC=C(c3nc(COc4ccc(-n5cnnn5)cc4)cs3)CC2)nc1 | solubility: 0.056

Item: CCc1cnc(N2CCC(c3nc(COc4ccc(-n5cnnn5)cc4)cs3)CC2)nc1 | solubility: 0.037

---

Exercise: state measured pEC50 for each of the compounds provided.
Target: Glucose-dependent insulinotropic receptor (Homo sapiens)
Sequence (Q8TDV5 whole entry): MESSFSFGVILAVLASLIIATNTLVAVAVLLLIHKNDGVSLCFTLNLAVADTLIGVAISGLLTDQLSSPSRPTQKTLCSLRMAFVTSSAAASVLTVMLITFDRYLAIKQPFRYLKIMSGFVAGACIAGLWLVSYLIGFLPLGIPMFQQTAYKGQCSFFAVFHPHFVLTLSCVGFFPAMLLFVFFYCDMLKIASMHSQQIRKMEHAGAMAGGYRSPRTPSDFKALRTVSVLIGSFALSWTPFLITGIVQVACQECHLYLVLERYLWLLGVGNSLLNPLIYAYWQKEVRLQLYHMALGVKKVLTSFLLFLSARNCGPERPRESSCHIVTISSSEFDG
Assay: Agonist activity at GPR119 (unknown origin) assessed as increase in cAMP level by cAMP HTRF assay
Schema: pEC50 number; meaning minus log10 of the concentration expressed in molar units.

Item: CCc1cnc(N2CC=C(c3nc(COc4ccc(S(C)(=O)=O)cc4)cs3)CC2)nc1 | pEC50: 7.15

Item: CCc1cnc(N2CC=C(c3nc(COc4ccc(-n5cnnn5)cc4F)cs3)CC2)nc1 | pEC50: 8.06

Item: CC(C)(C)OC(=O)N1CC=C(c2nc(COc3ccc(-n4cnnn4)cc3F)cs2)CC1 | pEC50: 6.97

Item: CC(C)(C)OC(=O)N1CC=C(c2nc(COc3ccc(-n4cnnn4)cc3)cs2)CC1 | pEC50: 6.95

Item: CC(C)(C)OC(=O)N1CC=C(c2nc(COc3ccc(S(C)(=O)=O)cc3)cs2)CC1 | pEC50: 6.17

Item: CCc1cnc(N2CC=C(c3nc(COc4ccc(-n5cnnn5)cc4Cl)cs3)CC2)nc1 | pEC50: 7.99

Item: CCc1cnc(N2CCC(c3nc(COc4ccc(-n5cnnn5)cc4)cs3)CC2)nc1 [MBX-2982] | pEC50: 8.41

Item: CCc1cnc(N2CC=C(c3nc(COc4ccc(-n5cnnn5)cc4)cs3)CC2)nc1 | pEC50: 8.31

Item: CCCCCCCC/C=C\CCCCCCCC(=O)NCCO [OLEOYLETHANOLAMIDE] | pEC50: 6.03

Item: CC(C)(C)OC(=O)N1CC=C(c2nc(COc3ccc(-n4cnnn4)cc3Cl)cs2)CC1 | pEC50: 6.97
